- experimentalTarget: AGTR1 (Homo sapiens, UniProt P30556)
- Construct: host or cells: Pathunter CHO-K1 AGTR1 β-arrestin cell line (CHO-K1)
- Sequence (P30556 whole entry): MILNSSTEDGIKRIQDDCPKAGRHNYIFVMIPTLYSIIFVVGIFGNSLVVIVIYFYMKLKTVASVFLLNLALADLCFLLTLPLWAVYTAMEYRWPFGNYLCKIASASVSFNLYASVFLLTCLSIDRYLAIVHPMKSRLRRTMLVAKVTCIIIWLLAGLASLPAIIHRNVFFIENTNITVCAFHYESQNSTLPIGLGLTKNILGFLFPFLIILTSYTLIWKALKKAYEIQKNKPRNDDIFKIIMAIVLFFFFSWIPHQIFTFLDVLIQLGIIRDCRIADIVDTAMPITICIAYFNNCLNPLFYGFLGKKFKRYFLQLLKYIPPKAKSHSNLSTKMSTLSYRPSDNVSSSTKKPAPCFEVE
- runDescription: DiscoveRx β-arrestin2 recruitment assay (enzyme complementation, Pathunter CHO-K1 AGTR1 β-arrestin cell line)
- Format: cell-based
- cond: DiscoveRx β-arrestin2 recruitment
# MET = EC50 below 40 nM (exclusive); NOT MET = EC50 at/above 40 nM

See these solved cases before continuing.
compound	classAssignment
CCOc1nc2cccc(C(=O)O)c2n1Cc1ccc(-c2cc(-c3cnn(C(F)F)c3)ccc2-c2nn[nH]n2)cc1 [Example 327]	MET
CCC1=NC2(CCOC2)C(=O)N1Cc1ccc(-c2cc(-c3ccccc3)ccc2-c2nn[nH]n2)cc1 (single isomer, unassigned) [Example 165]	NOT MET
CCCCc1nc(Cl)c(C(=O)O)n1Cc1ccc(-c2cc(-c3cc(OC)ccn3)ccc2-c2nn[nH]n2)cc1 [Example 421]	MET
CCOc1nc2cccc(C(=O)O)c2n1Cc1ccc(-c2cc(-c3cccc(C)c3)ccc2C(=O)O)cc1 [Example 313]	MET
CCCCC1=NC2(CCCC2)C(=O)N1Cc1ccc(-c2cc(Oc3cc(C)ccn3)ccc2-c2nn[nH]n2)cc1 [Example 455]	NOT MET

Asked: Identify whether the compound CCCCc1nc(Cl)c(C(=O)O)n1Cc1ccc(-c2cc(-c3cc(C)ccn3)ccc2-c2nn[nH]n2)cc1 [Example 420] records EC50 below 40 nM.
Given back: MET

Asked: Confirm or reject: EC50 of CCCc1nc(C(C)(C)O)c(C(=O)O)n1Cc1ccc(-c2cc(-c3ccccc3)ccc2-c2nn[nH]n2)cc1 [Example 402] lies strictly below 40 nM
Given back: MET

Asked: Say whether its EC50 is strictly beneath 40 nM. Entry: CCCCc1ncc(C(=O)NC2CCCCC2)n1Cc1ccc(-c2cc(-c3ccccc3)ccc2-c2nn[nH]n2)cc1 [Example 354]
Given back: NOT MET

Asked: Take the compound CCCCc1nc(Cl)c(C(=O)O)n1Cc1ccc(-c2cc(-c3ccc(C(=O)N(C)C)cc3)ccc2-c2noc(=O)[nH]2)cc1 [Example 409] and say whether its EC50 is less than 40 nM.
Given back: NOT MET

Asked: # TODO verify EC50 < 40 nM strictly for this compound: CCc1nc2c(C)cc(C)nc2n1Cc1ccc(-c2cc(-c3nccs3)ccc2-c2nn[nH]n2)cc1 [Example 56]
Given back: NOT MET

Asked: Hi there! Is EC50 for CCc1nc2c(C)cc(C)nc2n1Cc1ccc(-c2cc(Oc3ccccc3)ccc2-c2nnn[nH]2)cc1 [Example 204] below 40 nM, do you know?
Given back: MET

Asked: Does the reported EC50 of CCCC1=NC2(CCCC2)C(=O)N1Cc1ccc(-c2cc(-c3ccccc3)ccc2-c2nn[nH]n2)cc1 [Example 114] stay below 40 nM?
Given back: NOT MET
